Please respond with reported apparent KD of MS2 coat protein for every item in the list.
Test system: MS2 coat protein
Assay: apparent KD of MS2 coat protein; designed switch direction (-1 OFF switch, 1 ON switch): 1; higher = weaker reporter binding
Conditions: input ligand: none
# number only, unit nM dropped from output

Known value: MS2 coat protein apparent KD of MS2 coat protein of the sequence AGAUCAUGACGAGGAUAUCCGACAUGAGGAUCACCCAUGUAUGUCGGAGGACGGAAACGUCCAAAGGAGAAGGCGUCGUGGUCA [Mat - Same State NG 2 - JL mod - D37] (Eterna round: R96, puzzle: Same State NG 2) equals 85.3

Record CUGAGCAGUCAAGGAUAUCACGUCGAUUAGACGUGAGAAGGUGAUCAUUACAUGAGGAUCACCCAUGUGUUACAUGGAGCUCAG [Brourd's SSNG1/1-A2 mod 5] (Eterna round: R96, puzzle: Same State NG 1) / MS2 coat protein, apparent KD of MS2 coat protein recorded as 358

Result for AAAGAAAACGCAGGAUAUCCCGGAAUGGAACCGGGAGAAGGGUGACCGGUACAUGAGGAUCACCCAUGUAGAGCAAAGGCUCAA [Oninqu] (Eterna round: R96, puzzle: Same State NG 1) , tested on MS2 coat protein, apparent KD of MS2 coat protein: 124

Field apparent KD of MS2 coat protein (MS2 coat protein), entry AUUAUUAAUGCAGGAUAUGAUUAACAUGAGGAUCACCCAUGUGGUGUUGUGAGUAAGGAGAGUGAUCAGAAGGGCAUUUUUGUU [JMF's solution 14] (Eterna round: R96, puzzle: Same State NG 2) : 629

Hello, the source for this data is the supplement of paper PMC9170038, in case you need it.
